Entries and their normalized growth values follow.
Assay: chemical genetic growth profiling, strain panel (AID 1159580);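 further: tested at 20 µM; growth read once vehicle control cultures reached saturation at 30 °C; 1 = growth at the plate median or of vehicle wells; lower values mean less growth of the strain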
Conditions: S. cerevisiae strains, growth OD, strain wild type, active compounds read low
About 2,000 (36%) of roughly 5,500 compounds were called active. Roughly 18% stayed inconclusive and do not appear here. The list shows a part of the results.
Reply briefly: the number, and no unit.

Some molecules with recorded normalized growth:
Cc1onc(-c2c(Cl)cccc2Cl)c1-c1nc(-c2ccc3c(c2)OCCO3)cs1; 1.01
C[C@@H]1CC(Cl)CC[C@H]1C(=O)OC(C)(C)C (stereo not given in full); 0.984
C/C(=N/O)c1sc2nc(C(F)(F)F)nn2c1C; 0.962

Turning to the following molecule.
Entry CCCCC[C@H]1C(=O)O[C@H](C)[C@H](NC(=O)c2cccc(NC=O)c2O)C(=O)O[C@@H](C)[C@@H]1OC(=O)CC(C)C , normalized growth reported as 0.895

###

Assay: chemical genetic growth profiling, strain panel (AID 1159580);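 further: tested at 20 µM; growth read once vehicle control cultures reached saturation at 30 °C; 1 = growth at the plate median or of vehicle wells; lower values mean less growth of the strain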
Conditions: S. cerevisiae deletion strains, growth OD, locus YNL250W, strain rad50, active compounds read low
Out of some 5,500 compounds screened, about 2,000 (36%) were called active. Roughly 18% stayed inconclusive and do not appear here. This is one part of the list.
Entries and their normalized growth values follow.

Some compounds with recorded normalized growth:
COc1ccc(-c2coc3cc(O)ccc3c2=O)c(OC)c1O; 0.99 (inactive)
CC[C@@]1(O)C[C@H](O[C@H]2C[C@H](N(C)C)[C@H](O)[C@H](C)O2)c2c(cc3c(c2O)C(=O)c2c(O)ccc(O)c2C3=O)[C@H]1C(=O)OC; 0.738 (active)
O=C(O)/C=C/c1ccc(O)c(O)c1; 1 (inactive)
CC[C@@]1(O)C[C@H](O)c2c(cc3c(c2O)C(=O)c2c(O)ccc(O)c2C3=O)[C@H]1C(=O)OC; 0.144 (active)
COc1ccccc1-c1coc2cc(O)ccc2c1=O; 1.02 (inactive)
COc1ccc(-c2coc3cc(O)ccc3c2=O)c(OC)c1; 1.01 (inactive)

Entry O=C(OCC(O)CO)c1ccccc1Nc1ccnc2cc(Cl)ccc12 (stereo unspecified) , normalized growth reported as 0.969 (inactive)

Entry O=c1c(-c2ccc(O)cc2)coc2cc(O)ccc12 , normalized growth reported as 1.01 (inactive)

Entry COc1ccc(-c2coc3cc(O)ccc3c2=O)cc1 , normalized growth reported as 0.944 (inactive)

Entry CCCCCCCCC(=O)NCc1ccc(O)c(OC)c1 , normalized growth reported as 0.975 (inactive)

Entry COc1cc(CNC(=O)CCCC/C=C/C(C)C)ccc1O , normalized growth reported as 1.01 (inactive)

###

Test: chemical genetic growth profiling, strain panel (AID 1159580);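 further: tested at 20 µM; growth read once vehicle control cultures reached saturation at 30 °C; 1 = growth at the plate median or of vehicle wells; lower values mean less growth of the strain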
Settings: S. cerevisiae deletion strains, growth OD, locus YOR144C, strain elg1, active compounds read low
Out of some 5,500 compounds screened, about 2,000 (36%) were called active. Not shown: some 18% with an inconclusive outcome. Some of the results follow.
recorded-metric: normalized growth
Reply briefly: the number, and no unit.

O=C(O)c1cc2cc(F)ccc2[nH]1; 1.01
CN(C)CCN(Cc1ccccc1)c1ccccn1; 0.98
COc1ccc2c(c1)OC1(O)COc3cc(OC)c(OC)cc3C1=C2 (stereo unspecified); 0.987
O=C(O)CCCc1ccc(N(CCCl)CCCl)cc1; 0.987
COC(=O)[C@@H]1OC(=O)C2OC23[C@@]1(C)CCC1[C@]2(C)C(C[C@H](O)[C@]13C)C(C)(C)[C@H](OC(C)=O)C[C@@H]2OC(C)=O (stereo partly specified); 0.996

Entry O=C(O)CCCc1ccccc1 , normalized growth reported as 0.996

Entry CC(=O)O[C@H]1C[C@@H](OC(C)=O)C(C)(C)C2CC(=O)[C@]3(C)C(CC[C@@]4(C)[C@H](C(=O)O)OC(=O)C5OC543)[C@]21C (stereo partly specified) , normalized growth reported as 0.994

Entry O=C(O)/C=C/c1ccc(O)c(O)c1 , normalized growth reported as 1.01

Entry OCC(O)CN1CCN(c2ccccc2)CC1 (stereo unspecified) , normalized growth reported as 0.993

Entry Nc1nc(=S)c2[nH]cnc2[nH]1 , normalized growth reported as 0.999

Entry CC[C@@H](C(=O)C(C)[C@@H](O)[C@H](C)CCc1ccc(C)c(O)c1C(=O)O)C1OC(CC)(C2CC[C@](O)(CC)[C@H](C)O2)C[C@@H]1C (stereo partly specified) , normalized growth reported as 1.02

The reported numbers originate from PubChem BioAssay AID1159580.
